For each record, write down the corresponding hERG current change (%, negative = inhibition) at 10uM.
- assayed.system: human ether-à-go-go-related gene (hERG) potassium channel (human);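 also: peak tail current of the secondary pulse compared with the same well before compound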
- Sequence (Q12809 whole entry, looked up): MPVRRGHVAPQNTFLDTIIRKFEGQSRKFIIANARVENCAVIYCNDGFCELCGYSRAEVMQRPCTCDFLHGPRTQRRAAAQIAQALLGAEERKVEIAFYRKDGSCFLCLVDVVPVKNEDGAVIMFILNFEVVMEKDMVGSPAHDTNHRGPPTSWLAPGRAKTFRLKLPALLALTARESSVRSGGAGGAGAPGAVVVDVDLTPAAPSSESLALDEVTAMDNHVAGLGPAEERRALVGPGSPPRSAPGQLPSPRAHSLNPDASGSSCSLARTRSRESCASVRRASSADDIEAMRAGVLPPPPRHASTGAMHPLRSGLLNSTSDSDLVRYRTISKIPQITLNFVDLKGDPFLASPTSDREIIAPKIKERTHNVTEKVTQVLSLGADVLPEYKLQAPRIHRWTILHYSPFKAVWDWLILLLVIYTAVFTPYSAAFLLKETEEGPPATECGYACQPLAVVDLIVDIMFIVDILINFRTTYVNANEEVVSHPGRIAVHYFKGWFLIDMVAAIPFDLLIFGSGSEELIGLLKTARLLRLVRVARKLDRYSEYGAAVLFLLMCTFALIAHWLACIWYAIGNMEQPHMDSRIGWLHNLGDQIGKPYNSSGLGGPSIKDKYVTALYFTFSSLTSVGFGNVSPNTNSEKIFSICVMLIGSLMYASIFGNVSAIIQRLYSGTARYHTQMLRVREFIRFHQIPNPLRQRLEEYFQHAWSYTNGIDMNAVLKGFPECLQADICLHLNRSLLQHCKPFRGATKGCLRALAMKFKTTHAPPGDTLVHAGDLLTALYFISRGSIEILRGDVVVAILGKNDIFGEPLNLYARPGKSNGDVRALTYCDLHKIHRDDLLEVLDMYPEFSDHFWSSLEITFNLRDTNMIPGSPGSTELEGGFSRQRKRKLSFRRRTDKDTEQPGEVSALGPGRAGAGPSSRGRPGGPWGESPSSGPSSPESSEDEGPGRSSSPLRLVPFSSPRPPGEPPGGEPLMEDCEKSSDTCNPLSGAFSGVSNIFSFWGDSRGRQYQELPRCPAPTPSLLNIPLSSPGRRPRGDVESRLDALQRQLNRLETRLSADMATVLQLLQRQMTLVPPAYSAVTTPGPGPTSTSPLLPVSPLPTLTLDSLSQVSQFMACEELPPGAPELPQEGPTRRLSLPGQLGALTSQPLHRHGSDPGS
- test.protocol: primary screen, population patch clamp on CHO cells stably expressing hERG; higher = less effect of the substance
Hit rate of the full screen: of about 310,000 compounds, about 14,000 (4.5%) showed an effect of 50% or more. The effect is printed as a negative number. The sample as a whole holds a higher share of strong results than the screen did.
Numbers only, in %.

Solved cases (5 shown):
compound | measured.result
CC12COC3(C(=O)Nc4ccc([N+](=O)[O-])cc4)CC1CCC32C (stereo not shown) | -32.1
COCCN1CCN(C(=O)C2CCC(=O)N(Cc3ccccc3OC)C2)CC1 (stereo not shown) | 8.85
Cn1nnnc1Sc1ncnc2scc(-c3ccccc3Br)c12 | -4.66
Cn1c(Cn2nnc3ccccc32)nnc1SCC(=O)N1c2ccccc2Sc2ccccc21 | -22.1
CCOC(=O)c1c(-c2cccs2)csc1NC(C)=O | -1.29

Quick request: hERG current change (%, negative = inhibition) at 10uM for each listed item, please.
1. COc1cccc(CC(Cc2nc3ccccc3[nH]2)c2nc3ccccc3[nH]2)c1 (stereo not shown)
2. CCOC(=O)CNC(=O)N1CCC(CCOc2ccccc2)(C(=O)OCC)CC1
3. COC(=O)c1ccc([C@H](NC(=O)c2ccco2)[C@]2(C)C[C@H]2C2CCCCC2)cc1
4. CC1(c2ccccc2)NC(=O)N(CC(=O)Nc2ccccc2C(=O)N2CCCCC2)C1=O (stereo not shown)
5. COc1cc(CN2CCCCCC2)cc(OC)c1OC.O=C(O)C(=O)O
6. COc1cc(CN2CCN(Cc3ccc(C(F)(F)F)cc3)CC2)cc(OC)c1OC.O=C(O)C(=O)O

-33
1.83
9.14
19.7
13.8
-54.1

---

I'd be grateful if you could share measured hERG current change (%, negative = inhibition) at 10uM for these entries.
- assayed.system: human ether-à-go-go-related gene (hERG) potassium channel (human);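 also: peak tail current of the secondary pulse compared with the same well before compound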
- test.protocol: primary screen, population patch clamp on CHO cells stably expressing hERG; higher = less effect of the substance
About 14,000 (4.5%) of roughly 310,000 compounds showed an effect of 50% or more. Effects have a minus sign here. Only a selection was taken, and strong results are over-represented in it overall.
Answers are plain numbers, in %.

For orientation, consider the following solved cases.
molecule | measured.result
COc1ccc(-c2csc(NC(=O)CSCC(=O)Nc3cc(C)on3)n2)cc1OC | 1.07
Cc1ccc(S(=O)(=O)N2CCN(CC(=O)Nc3ccc([N+](=O)[O-])cc3)CC2)cc1C | -76.9
Cc1ccc(C(=O)OCC(=O)Nc2cccc(S(=O)(=O)N3CCCCC3)c2)o1 | 6.02

Please state hERG current change (%, negative = inhibition) at 10uM for every molecule in the list that follows.
1. CC1CC(C)CN(CC(=O)Nc2ccc(S(N)(=O)=O)cc2)C1 (centres unmarked)
2. Cc1ccc(C(=O)OCC(=O)Nc2cccc(S(=O)(=O)N3CCOCC3)c2)o1

[13.7, -53.1]

Hi there! I need hERG current change (%, negative = inhibition) at 10uM for each item below, if you can.
1. Cc1ccc(C)c(S(=O)(=O)N2CCN(CC(=O)Nc3ccc([N+](=O)[O-])cc3)CC2)c1
2. O=C(Nc1ccc(S(=O)(=O)N2CCOCC2)cc1)c1ccc([N+](=O)[O-])o1

[-40.7, -28.8]

I'm hoping you can list hERG current change (%, negative = inhibition) at 10uM for every molecule here, please.
1. COc1ccc(Nc2cc(C)nc3c(C)cccc23)cc1OC
2. Cc1cc(NCCN2CCOCC2)c2ccc3ccccc3c2n1
3. CCCCn1c(N)c(NCc2ccccc2OC)c(=O)[nH]c1=O
4. Cc1cc(Nc2ccc(N3CCOCC3)cc2)c2cccc(C)c2n1.Cl
5. CC1CCN(S(=O)(=O)c2ccc(NC(=O)CN3CCN(C)CC3)cc2)CC1
6. O=C(Nc1cccc(S(=O)(=O)N2CCCCC2)c1)c1ccc([N+](=O)[O-])o1
7. NC(=O)[C@@H]1CCCN1Cc1nc(Cc2ccccc2Cl)no1

[-21.3, -69.5, 12.2, -56.6, -16, -51.4, 14.5]
